Just for reference, BigSolDB 2.1 is where these values come from.

TEST_SETTINGS: in methyl acetate, 303.05 K
ASSAY_READOUT: solubility (mole fraction)
# output: bare number, no unit

Item "Cc1c(N(C)CS(=O)(=O)[O-])c(=O)n(-c2ccccc2)n1C.O.[Na+]" has what recorded solubility (mole fraction)?
0.0001

----------
TEST_SETTINGS: in n-propanol, 293.15 K
ASSAY_READOUT: solubility (mole fraction)

Quick check: solubility (mole fraction) of "Cc1c(N(C)CS(=O)(=O)[O-])c(=O)n(-c2ccccc2)n1C.O.[Na+]" ?
0.0011

----------
TEST_SETTINGS: in n-propanol, 303.05 K
ASSAY_READOUT: solubility (mole fraction)
Note: the reply should be a number with no unit written.

Consider the compound shown here: "Cc1c(N(C)CS(=O)(=O)[O-])c(=O)n(-c2ccccc2)n1C.O.[Na+]" What is its recorded solubility (mole fraction)?
0.0016

----------
TEST_SETTINGS: in n-propanol, 318.05 K
ASSAY_READOUT: solubility (mole fraction)
Reply briefly: the number, and no unit.

Fill in the blank: the reported solubility (mole fraction) of "Cc1c(N(C)CS(=O)(=O)[O-])c(=O)n(-c2ccccc2)n1C.O.[Na+]" is ____.
0.0028

----------
TEST_SETTINGS: in methanol, 313.05 K
ASSAY_READOUT: solubility (mole fraction)

Look at this compound and give its reported solubility (mole fraction). "Cc1c(N(C)CS(=O)(=O)[O-])c(=O)n(-c2ccccc2)n1C.O.[Na+]"
0.0475

----------
TEST_SETTINGS: in methanol, 323.05 K
ASSAY_READOUT: solubility (mole fraction)
Give only the figure.

Give its solubility (mole fraction) value. Item: "Cc1c(N(C)CS(=O)(=O)[O-])c(=O)n(-c2ccccc2)n1C.O.[Na+]"
0.058

----------
TEST_SETTINGS: in n-propanol, 308.05 K
ASSAY_READOUT: solubility (mole fraction)
Give the figure only, with no unit attached.

Form field: reported solubility (mole fraction) of "Cc1c(N(C)CS(=O)(=O)[O-])c(=O)n(-c2ccccc2)n1C.O.[Na+]"
0.0019

----------
TEST_SETTINGS: in n-butanol, 313.05 K
ASSAY_READOUT: solubility (mole fraction)
// keep it numeric: no unit symbol after the value

Name the recorded solubility (mole fraction) for "Cc1c(N(C)CS(=O)(=O)[O-])c(=O)n(-c2ccccc2)n1C.O.[Na+]" .
0.0009

----------
TEST_SETTINGS: in methanol, 332.85 K
ASSAY_READOUT: solubility (mole fraction)
Form rule: numeric answer, no unit written next to it.

Given the compound "Cc1c(N(C)CS(=O)(=O)[O-])c(=O)n(-c2ccccc2)n1C.O.[Na+]" , what is its reported solubility (mole fraction)?
0.0688

----------
TEST_SETTINGS: in ethanol, 313.05 K
ASSAY_READOUT: solubility (mole fraction)
Lab note: record the figure alone, no unit after it.

Quick check: solubility (mole fraction) of "Cc1c(N(C)CS(=O)(=O)[O-])c(=O)n(-c2ccccc2)n1C.O.[Na+]" ?
0.0056

----------
TEST_SETTINGS: in methyl acetate, 298.15 K
ASSAY_READOUT: solubility (mole fraction)
# answer = number (no unit)

Quick one: solubility (mole fraction) of "Cc1c(N(C)CS(=O)(=O)[O-])c(=O)n(-c2ccccc2)n1C.O.[Na+]" ?
0.0001

----------
TEST_SETTINGS: in ethanol, 298.15 K
ASSAY_READOUT: solubility (mole fraction)

I'd like to know its solubility (mole fraction). The compound in question is "Cc1c(N(C)CS(=O)(=O)[O-])c(=O)n(-c2ccccc2)n1C.O.[Na+]"
0.0037

----------
TEST_SETTINGS: in isopropanol, 327.95 K
ASSAY_READOUT: solubility (mole fraction)
Respond using a number only.

What does the record list as solubility (mole fraction) for "Cc1c(N(C)CS(=O)(=O)[O-])c(=O)n(-c2ccccc2)n1C.O.[Na+]" ?
0.0014

----------
TEST_SETTINGS: in water, 327.95 K
ASSAY_READOUT: solubility (mole fraction)
Write the value as a bare number.

Given "Cc1c(N(C)CS(=O)(=O)[O-])c(=O)n(-c2ccccc2)n1C.O.[Na+]" , state its recorded solubility (mole fraction).
0.0825

----------
TEST_SETTINGS: in ethyl acetate, 298.15 K
ASSAY_READOUT: solubility (mole fraction)
// keep it numeric: no unit symbol after the value

Need solubility (mole fraction) of "Cc1c(N(C)CS(=O)(=O)[O-])c(=O)n(-c2ccccc2)n1C.O.[Na+]" , thanks.
0.0001

----------
TEST_SETTINGS: in methyl acetate, 313.05 K
ASSAY_READOUT: solubility (mole fraction)
Note: the reply should be a number with no unit written.

Could you share which solubility (mole fraction) value was measured for "Cc1c(N(C)CS(=O)(=O)[O-])c(=O)n(-c2ccccc2)n1C.O.[Na+]" ?
0.0002

----------
TEST_SETTINGS: in ethanol, 327.95 K
ASSAY_READOUT: solubility (mole fraction)
Just the number, please, no unit after it.

# solubility (mole fraction) lookup, item "Cc1c(N(C)CS(=O)(=O)[O-])c(=O)n(-c2ccccc2)n1C.O.[Na+]"
0.0082

----------
TEST_SETTINGS: in ethanol, 303.05 K
ASSAY_READOUT: solubility (mole fraction)
// print number alone

Which solubility (mole fraction) value is on record for "Cc1c(N(C)CS(=O)(=O)[O-])c(=O)n(-c2ccccc2)n1C.O.[Na+]" ?
0.0042

----------
TEST_SETTINGS: in n-propanol, 332.85 K
ASSAY_READOUT: solubility (mole fraction)
Lab note: record just the number, no unit beside it.

Would you kindly share the measured solubility (mole fraction) for "Cc1c(N(C)CS(=O)(=O)[O-])c(=O)n(-c2ccccc2)n1C.O.[Na+]" ?
0.0047

----------
TEST_SETTINGS: in n-butanol, 332.85 K
ASSAY_READOUT: solubility (mole fraction)
Respond with the number and no other words.

May I ask what solubility (mole fraction) has been recorded for "Cc1c(N(C)CS(=O)(=O)[O-])c(=O)n(-c2ccccc2)n1C.O.[Na+]" ?
0.0024

----------
TEST_SETTINGS: in water, 313.05 K
ASSAY_READOUT: solubility (mole fraction)
Simply state the number, no unit and no words.

Given the entry "Cc1c(N(C)CS(=O)(=O)[O-])c(=O)n(-c2ccccc2)n1C.O.[Na+]" , report its measured solubility (mole fraction).
0.0697

----------
TEST_SETTINGS: in n-butanol, 308.05 K
ASSAY_READOUT: solubility (mole fraction)
Number, no unit, nothing else.

// lookup solubility (mole fraction) for "Cc1c(N(C)CS(=O)(=O)[O-])c(=O)n(-c2ccccc2)n1C.O.[Na+]"
0.0007

----------
TEST_SETTINGS: in water, 293.15 K
ASSAY_READOUT: solubility (mole fraction)
# print the numeric value only

Form field: reported solubility (mole fraction) of "Cc1c(N(C)CS(=O)(=O)[O-])c(=O)n(-c2ccccc2)n1C.O.[Na+]"
0.0538

----------
TEST_SETTINGS: in methanol, 298.15 K
ASSAY_READOUT: solubility (mole fraction)
// no unit, no text: just the number

Look up solubility (mole fraction) for this compound: "Cc1c(N(C)CS(=O)(=O)[O-])c(=O)n(-c2ccccc2)n1C.O.[Na+]"
0.0318

----------
TEST_SETTINGS: in acetone, 308.05 K
ASSAY_READOUT: solubility (mole fraction)
# output: bare number, no unit

Field request: solubility (mole fraction) | item: "Cc1c(N(C)CS(=O)(=O)[O-])c(=O)n(-c2ccccc2)n1C.O.[Na+]"
0.0002

----------
TEST_SETTINGS: in water, 332.85 K
ASSAY_READOUT: solubility (mole fraction)
Lab note: jot down the number only; don't add units.

Report solubility (mole fraction) for "Cc1c(N(C)CS(=O)(=O)[O-])c(=O)n(-c2ccccc2)n1C.O.[Na+]" please.
0.087

----------
TEST_SETTINGS: in isopropanol, 308.05 K
ASSAY_READOUT: solubility (mole fraction)
Reply with the value as a number alone.

Which solubility (mole fraction) value belongs to "Cc1c(N(C)CS(=O)(=O)[O-])c(=O)n(-c2ccccc2)n1C.O.[Na+]" ?
0.0006

----------
TEST_SETTINGS: in methanol, 308.05 K
ASSAY_READOUT: solubility (mole fraction)
Answer field: number only, no words.

// returns reported solubility (mole fraction) for input "Cc1c(N(C)CS(=O)(=O)[O-])c(=O)n(-c2ccccc2)n1C.O.[Na+]"
0.0408

----------
TEST_SETTINGS: in n-propanol, 298.15 K
ASSAY_READOUT: solubility (mole fraction)
Reply with the value as a number alone.

Given the compound "Cc1c(N(C)CS(=O)(=O)[O-])c(=O)n(-c2ccccc2)n1C.O.[Na+]" , what is its reported solubility (mole fraction)?
0.0013
